Provenance of the data: ChEMBL document CHEMBL1141007

Tested on: MDCK
Experiment: Apparent permeability from apical to basolateral side of MDCK cells expressing MDR1
Assay type: ADME, cell-based, Canis lupus familiaris
Conditions: dog
measured.endpoint: Papp (×10⁻⁶ cm/s)

I = COCc1cccc2c1CC[C@H]2c1ncc[nH]1
II = CS(=O)(=O)Nc1c(Cl)ccc2c1CCCC2c1ncc[nH]1 (stereo not given)
Between I and II , whose measured Papp reads higher? Answer with the label corresponding to your selection.
I

###

Test: Metabolic stability in human liver microsomes assessed as intrinsic clearance
Format: ADME, Microsome
measured.endpoint: microsomal CLint (µL/min/mg)

Consider the worked cases shown below.
COCc1cc(F)cc2c1CCC2c1ncc[nH]1 (stereo not given) | 20
COCc1c(F)ccc2c1CC[C@H]2c1ncc[nH]1 | 11
CCOCc1cccc2c1CCC2c1ncc[nH]1 (stereo not given) | 115
COCCc1cccc2c1CCC2c1ncc[nH]1 (stereo not given) | 38
COCc1cccc2c1CC[C@H]2c1ncc[nH]1 | 12

A = c1cc(Cn2cccn2)c2c(c1)[C@H](c1ncc[nH]1)CC2
B = Cc1noc(Cc2cccc3c2CC[C@H]3c2ncc[nH]2)n1
Parameter check: reported microsomal CLint is higher for which label, A or B ? Answer by quoting the chosen item's label.
B

###

Assay: Metabolic stability in dog liver microsomes assessed as intrinsic clearance
Assay type: ADME, Canis lupus familiaris, Microsome
measured.endpoint: microsomal CLint (µL/min/mg)

A = Fc1ccn(Cc2c(F)ccc3c2CC[C@H]3c2ncc[nH]2)n1
B = COCc1c(Cl)ccc2c1CC[C@H]2c1ncc[nH]1
Field: lower recorded microsomal CLint (choose A or B ) Identify your selection by its label.
B

###

System: MDCK
Experiment: Apparent permeability from apical to basolateral side of MDCK cells expressing MDR1
Type: ADME, cell-based, Canis lupus familiaris
Settings: dog
measured.endpoint: Papp (nm/s)

Fc1ccn(Cc2c(F)ccc3c2CC[C@H]3c2ncc[nH]2)n1 | 380
Cc1noc(Cc2cccc3c2CC[C@H]3c2ncc[nH]2)n1 | 340
COCc1c(Cl)ccc2c1CC[C@H]2c1ncc[nH]1 | 400
c1cc(Cn2cccn2)c2c(c1)[C@H](c1ncc[nH]1)CC2 | 330

I = Clc1ccc2c(c1-c1cn[nH]c1)CCC2c1ncc[nH]1 (stereo unspecified)
II = CS(=O)(=O)Cc1cccc2c1CCC2c1ncc[nH]1 (stereo unspecified)
Of the pair I and II , name the member with the lesser recorded Papp. Answer by stating the label of the chosen item.
II

###

System: Canis familiaris
Test: Clearance in iv dosed dog
Assay type: ADME, organism-based, Canis lupus familiaris
Conditions: in vivo
measured.endpoint: clearance (mL/min/kg)
Numeric only. Scale: mL/min/kg

Give Canis familiaris clearance for COCc1c(Cl)ccc2c1CC[C@H]2c1ncc[nH]1
14

###

Assay: Volume of distribution in iv dosed dog
Type: ADME, organism-based, Canis lupus familiaris
Settings: in vivo
measured.endpoint: Vd (L/kg)

A = Fc1ccn(Cc2c(F)ccc3c2CC[C@H]3c2ncc[nH]2)n1
B = COCc1c(Cl)ccc2c1CC[C@H]2c1ncc[nH]1
Which of the two items, A and B , has the greater recorded Vd? Kindly state the label of the option you pick.
A

###

# inhibition at 10 µM annotations
Target: CYP3A4 (Homo sapiens)
Sequence (P08684 whole entry): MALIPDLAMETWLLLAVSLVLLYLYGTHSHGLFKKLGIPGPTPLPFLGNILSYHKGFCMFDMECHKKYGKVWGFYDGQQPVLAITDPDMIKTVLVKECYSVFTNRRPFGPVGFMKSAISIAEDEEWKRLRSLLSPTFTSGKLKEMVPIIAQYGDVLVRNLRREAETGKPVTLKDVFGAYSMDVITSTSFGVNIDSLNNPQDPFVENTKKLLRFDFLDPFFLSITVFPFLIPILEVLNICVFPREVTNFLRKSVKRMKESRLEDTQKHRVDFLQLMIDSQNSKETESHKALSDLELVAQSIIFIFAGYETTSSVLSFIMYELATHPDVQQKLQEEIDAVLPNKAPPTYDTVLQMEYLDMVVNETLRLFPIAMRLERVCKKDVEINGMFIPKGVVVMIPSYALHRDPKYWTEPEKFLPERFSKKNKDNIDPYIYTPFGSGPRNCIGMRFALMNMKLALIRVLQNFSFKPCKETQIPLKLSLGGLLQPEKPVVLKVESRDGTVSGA
Assay: Inhibition of CYP3A4 at 10 uM
Type: ADME

COCc1c(Cl)ccc2c1CC[C@H]2c1ncc[nH]1 | < 35%

Could you now look at the following compound, please?
API: value(readout=inhibition at 10 µM, system=CYP3A4 (Homo sapiens)) for record Fc1ccn(Cc2c(F)ccc3c2CC[C@H]3c2ncc[nH]2)n1
< 50%
